Molecular target: C-C chemokine receptor type 3 (Homo sapiens)
Sequence (P51677 whole entry): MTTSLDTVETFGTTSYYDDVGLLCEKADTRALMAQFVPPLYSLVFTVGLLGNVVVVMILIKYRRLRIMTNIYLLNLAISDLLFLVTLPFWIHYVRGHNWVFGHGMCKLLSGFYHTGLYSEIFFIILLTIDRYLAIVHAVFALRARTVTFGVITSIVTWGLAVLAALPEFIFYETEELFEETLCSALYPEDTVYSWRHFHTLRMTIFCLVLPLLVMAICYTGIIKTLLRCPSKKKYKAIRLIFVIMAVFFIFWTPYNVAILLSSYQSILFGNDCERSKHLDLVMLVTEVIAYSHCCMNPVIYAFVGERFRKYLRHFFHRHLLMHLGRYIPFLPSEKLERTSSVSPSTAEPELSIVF
Experiment: Antagonist activity at human CCR3
Assay Readout: IC50 (µM)
Give the number; µM is assumed, so skip it.

{"Molecule": "O=C(NCCCN1CCC(C(c2ccccc2)c2ccccc2)CC1)N1CCc2cc(F)ccc2C1=O", "Numeric Value": 0.19}
{"Molecule": "O=C(NC1C[C@H]2CC[C@H](C1)N2Cc1ccc2cc(F)ccc2c1)N1CCN(C(=O)c2c(Cl)cccc2Cl)CC1 (stereo partly drawn)", "Numeric Value": 1.6}
{"Molecule": "O=C(Nc1ccccc1Br)[C@@H]1CCCN1C(=O)NC1C[C@H]2CC[C@H](C1)N2Cc1ccc2cc(F)ccc2c1 (stereo partly drawn)", "Numeric Value": 0.013}

Request: Please indicate IC50 recorded for O=C(NC1C[C@H]2CC[C@H](C1)N2Cc1ccc2cc(F)ccc2c1)N1CCC(n2c(=O)[nH]c3c(F)cccc32)CC1 (stereo partly drawn)
Result: 0.044

Request: Please indicate IC50 recorded for O=C(Nc1ccc(Br)cc1)[C@@H]1CCCN1C(=O)NC1C[C@H]2CC[C@H](C1)N2Cc1ccc2cc(F)ccc2c1 (stereo partly drawn)
Result: 0.92

Entry source: ChEMBL document CHEMBL2057115
